# System: NCI-H460 lung
# runDescription: NCI tumour cell line growth inhibition, 48 h
endpoint: TGI

// known answers, use as guide
{"compound": "CCCNc1nc(-c2ccc(OC)cc2)nc2ccccc12", "endpoint": "TGI", "testValue": "44 µM"}
{"compound": "COc1cc2c(cc1-c1c(C)noc1C)ncc1nc(C3CCCCC3)n(C3CCC(OC(F)F)CC3)c12 (centres undefined)", "endpoint": "TGI", "testValue": "> 100 µM"}
{"compound": "CC1CCN(c2nnc(Cl)cc2C(=O)c2ccccc2)CC1", "endpoint": "TGI", "testValue": "> 100 µM"}

[Q] // TGI lookup, key: `COc1cc(-c2ccc(-c3ccc(C(=N)N)s3)s2)cc(OC)c1OC`
[A] 3.64 µM

[Q] Item CC1OC(OC2C(CO)OC(O[C@H]3CC[C@@]4(C)C(=CC[C@H]5[C@@H]6C[C@@H]7O[C@](O)(CC[C@@H](C)COC8OC(CO)C(O)C(O)C8O)[C@@H](C)[C@@H]7[C@@]6(C)CC[C@@H]54)C3)C(OC3OC(C)C(O)C(O)C3O)C2O)C(O)C(O)C1O (some centres undefined) has what recorded TGI?
[A] 4.57 µM

[Q] Can you look up the measured TGI of `NS(=O)(=O)c1ccc(CNC(=S)NC(=O)Nc2ccc(Cl)c(Cl)c2)cc1` for me?
[A] 94 µM

[Q] Please give the measured TGI for this compound: `COc1cc(/C=C/C(=O)c2ccc(Nc3nc(Nc4ccc(F)cc4)nc(Nc4ccc(F)cc4)n3)cc2)cc(OC)c1OC`
[A] > 100 µM

[Q] Dear colleague, I am looking for the recorded TGI of the following compound: `O=Cc1cc(O)c(O)c(O)c1-c1c(C=O)cc(O)c(O)c1O`
[A] > 100 µM

[Q] Report TGI for CCC1OC2C(CC=C(C)C)=C3OC(C)(O)C(C)(CC)C(O)C3=C3OC(=O)C=C1C32 (centres undefined) please.
[A] 70.5 µM

[Q] So what's the measured TGI for this one? `C[Si](C)(C)C#C[I+]c1ccccc1`
[A] > 100 µM

[Q] Give its TGI value. Item: CCOC(=O)[C@H]1Nc2ccc(O)cc2C2c3ccccc3CC21 (some centres undefined)
[A] > 100 µM
